Catalogue of molecules with associated Apparent stability constant Kc
- experimentalDetails: Phase solubility studies (Higuchi and Connors) with RAMEB
- reportedConditions: RAMEB 0 to 0.1 M; 1:1 complex; 25°C
measure: Apparent stability constant Kc

>>> reading("c1ccc2c(c1)ccc1ccccc12")
"4925 (±511) M^−1"
>>> reading("c1cc2c3c(cccc3c1)CC2")
"644 (±12) M^−1"
>>> reading("c1ccc2c(c1)Cc1ccccc1-2")
"2906 (±164) M^−1"
>>> reading("c1ccc2cc3ccccc3cc2c1")
"5399 (±52) M^−1"
